The reported measurements were obtained from the CheMixHub drug solubility set.

Assay: xn = mol fraction of the nth substance listed, in the solute-free solvent
Details: 298.15 K; x2 = 0.3
Measure name: solubility (g/100 g solution)

Recorded results for 2 molecules are shown here.
Cc1nc(C)c(C)nc1C + CO + CC#N : 40.2
O=CC(O)C(O)C(O)CO (centres undefined) + CO + ClCCl : 1.78

A. O=CC(O)C(O)C(O)CO (centres undefined) + CCO + ClCCl
B. Cc1nc(C)c(C)nc1C + CCCCO + CC#N
From the recorded data, which exceeds the other in solubility (g/100 g solution): A or B ? Return value: the label identifying the chosen record.
B

====

Assay: xn = mol fraction of the nth substance listed, in the solute-free solvent
Details: 283.15 K; x2 = 0.5
Measure name: solubility (g/100 g solution)

Record excerpt, results attached:
O=CC(O)C(O)C(O)CO (configuration not stated) + CC(C)O + CCCCCC : 0.188
O=CC(O)C(O)C(O)CO (configuration not stated) + CCO + ClCCl : 1.41
O=CC(O)C(O)C(O)CO (configuration not stated) + CO + ClCCl : 2.52
Cl.NC(C=O)C(O)C(O)C(O)CO (configuration not stated) + O + CCO : 1.17
Cc1nc(C)c(C)nc1C + CCCCO + CC#N : 30.4

A. O=CC(O)C(O)C(O)CO (configuration not stated) + CCO + CCCCCC
B. Cc1nc(C)c(C)nc1C + CO + CC#N
When A and B are compared, which has the higher number for solubility (g/100 g solution)? Your answer should be the label of the entry you select.
B

====

Assay: xn = mol fraction of the nth substance listed, in the solute-free solvent
Conditions: 288.15 K; x2 = 0.5
Measure name: solubility (g/100 g solution)

Some compounds with known solubility (g/100 g solution) results, for comparison:
O=CC(O)C(O)C(O)CO (stereo not given) + CCO + ClCCl : 1.81
Cc1nc(C)c(C)nc1C + CO + CC#N : 39.9

1. O=CC(O)C(O)C(O)CO (stereo not given) + CO + ClCCl
2. Cl.NC(C=O)C(O)C(O)C(O)CO (stereo not given) + O + CCO
3. Cc1nc(C)c(C)nc1C + CCCCO + CC#N
List the 3 entries from lowest solubility (g/100 g solution) to highest solubility (g/100 g solution) value. Provide the labels, sequenced as the question asks.
2, 1, 3

====

Assay: xn = mol fraction of the nth substance listed, in the solute-free solvent
Details: 283.15 K; x2 = 0.7
Measure name: solubility (g/100 g solution)

I. O=CC(O)C(O)C(O)CO (configuration not stated) + CO + ClCCl
II. Cc1nc(C)c(C)nc1C + CO + CC#N
Which one would you say has the larger solubility (g/100 g solution) value: I , or II ? Let me know the label of the one you choose.
II
(II: 40.8, I: 4.89)

I. O=CC(O)C(O)C(O)CO (configuration not stated) + CC(C)O + CCCCCC
II. Cc1nc(C)c(C)nc1C + CCCCO + CC#N
III. O=CC(O)C(O)C(O)CO (configuration not stated) + CCO + CCCCCC
IV. O=CC(O)C(O)C(O)CO (configuration not stated) + CCO + ClCCl
// sort entries: solubility (g/100 g solution), high to low Write the labels in rank order as requested.
II, IV, III, I
